Hello, the source for this data is ChEMBL document CHEMBL2069216, in case you need it.

Target: Platelet-derived growth factor receptor (Homo sapiens, UniProt P09619+P16234)
Assay: Inhibition of PDGFR

smiles-text	IC50
C[C@H](NC(=O)c1cc(-c2cnn(C3CCOCC3)c2)cnc1N)c1c(Cl)ccc(F)c1Cl	> 10 µM

* * *

Molecular target: Tyrosine-protein kinase receptor UFO (Homo sapiens)
Sequence (P30530 whole entry): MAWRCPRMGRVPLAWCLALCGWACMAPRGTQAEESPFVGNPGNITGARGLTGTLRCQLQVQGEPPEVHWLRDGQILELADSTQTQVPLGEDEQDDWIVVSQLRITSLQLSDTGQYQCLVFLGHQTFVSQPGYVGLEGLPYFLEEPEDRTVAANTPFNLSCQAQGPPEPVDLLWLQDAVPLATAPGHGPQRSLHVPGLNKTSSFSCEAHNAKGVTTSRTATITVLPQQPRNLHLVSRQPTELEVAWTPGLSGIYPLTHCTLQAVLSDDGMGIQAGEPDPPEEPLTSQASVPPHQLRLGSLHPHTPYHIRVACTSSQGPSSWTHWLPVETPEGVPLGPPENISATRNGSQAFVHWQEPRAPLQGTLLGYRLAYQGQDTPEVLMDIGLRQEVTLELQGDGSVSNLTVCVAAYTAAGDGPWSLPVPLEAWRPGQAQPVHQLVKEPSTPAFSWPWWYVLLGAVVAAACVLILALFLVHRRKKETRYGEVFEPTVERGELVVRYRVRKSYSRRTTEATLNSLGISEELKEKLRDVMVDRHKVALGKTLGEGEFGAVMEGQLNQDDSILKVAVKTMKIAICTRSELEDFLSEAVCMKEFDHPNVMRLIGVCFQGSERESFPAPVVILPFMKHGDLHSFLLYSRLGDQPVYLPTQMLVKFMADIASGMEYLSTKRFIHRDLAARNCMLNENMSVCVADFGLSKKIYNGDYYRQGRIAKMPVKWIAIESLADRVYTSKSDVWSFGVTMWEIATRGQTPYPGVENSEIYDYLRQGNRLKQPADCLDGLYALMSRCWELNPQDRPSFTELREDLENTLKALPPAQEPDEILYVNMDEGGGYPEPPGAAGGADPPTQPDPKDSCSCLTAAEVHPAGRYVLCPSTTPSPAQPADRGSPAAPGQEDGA
reported-property: IC50

smiles-text	measured
C[C@H](NC(=O)c1cc(-c2cnn(C3CCOCC3)c2)cnc1N)c1c(Cl)ccc(F)c1Cl	> 10 µM

* * *

Target: Hepatocyte growth factor receptor (Homo sapiens)
Experiment: Inhibition of c-Met at 1 uM incubated for 60 mins by spectrophotometry

smiles-text	tested-on	inhibition [%]
CN(Cc1c(F)ccc(Cl)c1F)C(=O)c1cc(-c2cnn(C)c2)cnc1N	Hepatocyte growth factor receptor (Homo sapiens)	10.9
CN(Cc1c(F)ccc(F)c1Cl)C(=O)c1cc(-c2cnn(C)c2)cnc1N	Hepatocyte growth factor receptor (Homo sapiens)	18.1
C[C@@H](NC(=O)c1cc(-c2cnn(C3CCOCC3)c2)cnc1N)c1c(Cl)ccc(F)c1Cl	Hepatocyte growth factor receptor (Homo sapiens)	27.6
CN(Cc1c(F)ccc(Cl)c1Cl)C(=O)c1cc(-c2cnn(C)c2)cnc1N	Hepatocyte growth factor receptor (Homo sapiens)	13.1

* * *

Biological target: Receptor tyrosine-protein kinase erbB-4 (Homo sapiens, UniProt Q15303)
Sequence (Q15303 whole entry): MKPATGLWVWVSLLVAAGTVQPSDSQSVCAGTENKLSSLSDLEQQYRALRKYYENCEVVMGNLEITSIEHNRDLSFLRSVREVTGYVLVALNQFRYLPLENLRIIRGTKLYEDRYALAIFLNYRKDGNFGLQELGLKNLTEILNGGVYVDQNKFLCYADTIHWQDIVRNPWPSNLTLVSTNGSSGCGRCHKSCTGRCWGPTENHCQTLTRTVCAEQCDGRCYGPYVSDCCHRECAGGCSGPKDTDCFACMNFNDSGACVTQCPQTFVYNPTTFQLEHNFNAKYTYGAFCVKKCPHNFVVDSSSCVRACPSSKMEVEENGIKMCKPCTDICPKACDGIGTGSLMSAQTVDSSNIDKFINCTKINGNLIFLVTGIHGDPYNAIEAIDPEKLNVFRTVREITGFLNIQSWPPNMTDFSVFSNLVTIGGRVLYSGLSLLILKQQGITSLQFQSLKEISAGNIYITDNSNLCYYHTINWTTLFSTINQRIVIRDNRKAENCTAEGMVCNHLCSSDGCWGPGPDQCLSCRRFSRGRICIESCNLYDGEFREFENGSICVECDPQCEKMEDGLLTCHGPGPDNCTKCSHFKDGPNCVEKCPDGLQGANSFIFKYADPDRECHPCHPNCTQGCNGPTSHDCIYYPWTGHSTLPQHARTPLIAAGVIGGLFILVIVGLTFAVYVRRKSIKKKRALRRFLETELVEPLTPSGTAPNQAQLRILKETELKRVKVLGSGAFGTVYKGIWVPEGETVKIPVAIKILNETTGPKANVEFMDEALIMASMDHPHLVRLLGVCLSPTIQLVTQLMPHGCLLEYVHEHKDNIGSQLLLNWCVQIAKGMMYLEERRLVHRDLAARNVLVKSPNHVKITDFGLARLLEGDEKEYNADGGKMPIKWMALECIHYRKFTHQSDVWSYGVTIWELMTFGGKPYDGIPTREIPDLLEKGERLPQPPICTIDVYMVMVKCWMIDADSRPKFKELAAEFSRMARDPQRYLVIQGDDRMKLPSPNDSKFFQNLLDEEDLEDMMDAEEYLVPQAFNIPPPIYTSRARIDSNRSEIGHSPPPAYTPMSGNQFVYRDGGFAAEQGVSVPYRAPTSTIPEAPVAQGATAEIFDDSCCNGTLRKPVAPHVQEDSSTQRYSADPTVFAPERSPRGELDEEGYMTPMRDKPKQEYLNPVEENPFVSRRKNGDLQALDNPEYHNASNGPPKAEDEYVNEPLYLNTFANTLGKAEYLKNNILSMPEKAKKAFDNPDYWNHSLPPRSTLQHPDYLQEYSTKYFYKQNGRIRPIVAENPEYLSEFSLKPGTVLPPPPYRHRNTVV

smiles-text	IC50
C[C@H](NC(=O)c1cc(-c2cnn(C3CCOCC3)c2)cnc1N)c1c(Cl)ccc(F)c1Cl	> 10 µM

* * *

Target: Hepatocyte growth factor receptor (Homo sapiens, UniProt P08581)
Sequence (P08581 whole entry): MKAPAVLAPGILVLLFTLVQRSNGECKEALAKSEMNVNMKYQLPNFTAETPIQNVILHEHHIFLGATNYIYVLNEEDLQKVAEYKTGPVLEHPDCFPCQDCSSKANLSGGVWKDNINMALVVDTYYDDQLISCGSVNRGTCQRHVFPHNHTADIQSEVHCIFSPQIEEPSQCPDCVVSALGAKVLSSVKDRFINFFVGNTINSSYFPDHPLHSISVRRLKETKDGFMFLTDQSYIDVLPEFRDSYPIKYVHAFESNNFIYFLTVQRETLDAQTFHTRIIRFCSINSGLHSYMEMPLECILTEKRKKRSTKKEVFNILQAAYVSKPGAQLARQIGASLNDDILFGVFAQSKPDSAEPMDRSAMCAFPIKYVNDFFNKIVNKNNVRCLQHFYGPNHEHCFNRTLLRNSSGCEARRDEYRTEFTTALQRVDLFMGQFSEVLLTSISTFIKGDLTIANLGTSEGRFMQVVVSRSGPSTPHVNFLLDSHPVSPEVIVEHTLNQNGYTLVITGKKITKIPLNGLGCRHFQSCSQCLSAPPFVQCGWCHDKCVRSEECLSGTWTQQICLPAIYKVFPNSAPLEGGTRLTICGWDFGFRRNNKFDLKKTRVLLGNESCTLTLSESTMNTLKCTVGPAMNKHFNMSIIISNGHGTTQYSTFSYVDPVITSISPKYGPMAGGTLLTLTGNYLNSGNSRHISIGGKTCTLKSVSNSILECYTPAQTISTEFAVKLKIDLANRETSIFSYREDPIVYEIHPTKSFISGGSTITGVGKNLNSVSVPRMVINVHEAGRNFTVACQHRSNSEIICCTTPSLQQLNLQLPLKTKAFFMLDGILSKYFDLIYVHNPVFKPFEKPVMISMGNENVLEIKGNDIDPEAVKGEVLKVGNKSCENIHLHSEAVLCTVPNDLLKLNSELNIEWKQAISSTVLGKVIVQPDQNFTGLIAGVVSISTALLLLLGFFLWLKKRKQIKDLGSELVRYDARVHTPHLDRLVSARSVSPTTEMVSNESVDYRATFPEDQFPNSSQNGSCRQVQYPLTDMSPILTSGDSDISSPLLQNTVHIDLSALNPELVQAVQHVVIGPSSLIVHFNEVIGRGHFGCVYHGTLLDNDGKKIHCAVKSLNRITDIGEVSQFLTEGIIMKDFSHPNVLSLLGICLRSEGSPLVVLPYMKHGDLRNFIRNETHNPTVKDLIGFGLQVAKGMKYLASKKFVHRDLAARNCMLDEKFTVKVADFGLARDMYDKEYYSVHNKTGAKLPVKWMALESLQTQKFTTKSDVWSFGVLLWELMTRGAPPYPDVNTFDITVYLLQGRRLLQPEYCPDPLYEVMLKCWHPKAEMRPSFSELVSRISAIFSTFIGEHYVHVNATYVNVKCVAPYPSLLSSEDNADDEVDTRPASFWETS
reported-property: IC50 (nM)

molecule	result-unit	measured
CC(NC(=O)c1cc(-c2cnn(C3CCOCC3)c2)cnc1N)c1c(Cl)ccc(F)c1Cl (racemic)	nM	99

* * *

Experiment: Antiproliferative activity against human EBC1 cells expressing elevated levels of constitutively active c-Met after 72 hrs by SRB assay
Format: functional, cell-based
Conditions: EBC-1, 72 h
molecules and their reported IC50

molecule	relation-operator	IC50 / µM
Cn1cc(-c2cnc(N)c(C(=O)NCc3ccc(F)c(F)c3)c2)cn1	=	14.6
Cn1cc(-c2cnc(N)c(C(=O)NCc3cc(F)ccc3F)c2)cn1	=	15
C[C@H](NC(=O)c1cc(-c2cnn(C3CCOCC3)c2)cnc1N)c1c(Cl)ccc(F)c1Cl	=	1.22
CC(NC(=O)c1cc(-c2ccc(OCC(=O)N3CCOCC3)cc2)cnc1N)c1c(Cl)ccc(F)c1Cl (stereo unspecified)	=	6.05
Cn1cc(-c2cnc(N)c(C(=O)NCc3c(F)ccc(Cl)c3Cl)c2)cn1	=	12.7
CC(NC(=O)c1cc(-c2cnn(C3CCNCC3)c2)cnc1N)c1c(Cl)ccc(F)c1Cl (stereo unspecified)	=	1.46
CC(NC(=O)c1cc(-c2ccc3c(c2)CC(=O)N3)cnc1N)c1c(Cl)ccc(F)c1Cl (stereo unspecified)	=	17.8
CC(NC(=O)c1cc(-c2cnn(C3CCOCC3)c2)cnc1N)c1c(Cl)ccc(F)c1Cl (racemic)	=	3.49
CC(NC(=O)c1cc(-c2cnn(C)c2)cnc1N)c1c(Cl)ccc(F)c1Cl (stereo unspecified)	>	50
Cn1cc(-c2cnc(N)c(C(=O)NCc3c(F)ccc(F)c3Cl)c2)cn1	=	6.9
C[C@@H](Oc1cc(-c2cnn(C3CCNCC3)c2)cnc1N)c1c(Cl)ccc(F)c1Cl	=	0.053

* * *

Biological target: Vascular endothelial growth factor receptor 2 (Homo sapiens, UniProt P35968)
Sequence (P35968 whole entry): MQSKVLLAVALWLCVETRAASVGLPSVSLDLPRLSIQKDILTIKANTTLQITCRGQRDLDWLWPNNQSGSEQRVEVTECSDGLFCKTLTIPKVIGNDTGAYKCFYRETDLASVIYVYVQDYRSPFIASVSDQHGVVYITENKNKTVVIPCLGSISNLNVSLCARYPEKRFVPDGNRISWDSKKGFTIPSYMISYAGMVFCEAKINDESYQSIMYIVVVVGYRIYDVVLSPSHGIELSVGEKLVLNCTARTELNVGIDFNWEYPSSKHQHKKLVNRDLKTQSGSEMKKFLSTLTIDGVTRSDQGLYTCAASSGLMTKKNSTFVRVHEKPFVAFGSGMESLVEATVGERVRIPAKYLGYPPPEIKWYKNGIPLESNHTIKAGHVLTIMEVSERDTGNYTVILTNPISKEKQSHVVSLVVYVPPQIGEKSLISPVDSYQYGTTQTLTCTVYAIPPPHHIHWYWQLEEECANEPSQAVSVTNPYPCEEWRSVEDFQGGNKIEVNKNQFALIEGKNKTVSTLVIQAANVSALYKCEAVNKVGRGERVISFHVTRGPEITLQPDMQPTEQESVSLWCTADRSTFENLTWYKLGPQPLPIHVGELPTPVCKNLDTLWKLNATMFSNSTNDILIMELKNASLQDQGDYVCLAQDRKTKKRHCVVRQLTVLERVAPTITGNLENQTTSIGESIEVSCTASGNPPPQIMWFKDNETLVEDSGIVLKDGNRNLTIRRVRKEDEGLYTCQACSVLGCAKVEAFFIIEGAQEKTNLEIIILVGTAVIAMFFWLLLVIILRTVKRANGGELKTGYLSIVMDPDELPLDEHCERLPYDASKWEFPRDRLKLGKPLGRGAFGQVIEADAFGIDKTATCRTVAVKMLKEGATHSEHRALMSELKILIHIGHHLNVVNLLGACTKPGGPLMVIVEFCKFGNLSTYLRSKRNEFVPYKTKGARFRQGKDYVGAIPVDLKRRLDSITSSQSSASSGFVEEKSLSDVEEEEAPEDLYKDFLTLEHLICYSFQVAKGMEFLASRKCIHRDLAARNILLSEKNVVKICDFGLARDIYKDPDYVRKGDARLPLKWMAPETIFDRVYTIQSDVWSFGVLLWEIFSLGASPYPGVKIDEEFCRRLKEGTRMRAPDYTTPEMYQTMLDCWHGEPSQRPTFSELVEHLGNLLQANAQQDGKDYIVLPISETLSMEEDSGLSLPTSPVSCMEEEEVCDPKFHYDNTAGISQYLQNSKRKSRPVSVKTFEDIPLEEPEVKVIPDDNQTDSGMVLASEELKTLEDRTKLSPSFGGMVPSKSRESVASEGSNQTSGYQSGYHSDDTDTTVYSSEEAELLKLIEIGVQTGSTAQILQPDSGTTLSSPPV
pIC50: −log10 of the molar value.

smiles-text	tested-on	pIC50
C[C@H](NC(=O)c1cc(-c2cnn(C3CCOCC3)c2)cnc1N)c1c(Cl)ccc(F)c1Cl	Vascular endothelial growth factor receptor 2 (Homo sapiens, UniProt P35968)	< 5.00
